In this section, each of the compounds is paired with its reported pIC50.
# assayed_target: XIAP Bir3-RING (GST-BIR 3RING) (Homo sapiens, UniProt P98170)
# Sequence (P98170 246-497): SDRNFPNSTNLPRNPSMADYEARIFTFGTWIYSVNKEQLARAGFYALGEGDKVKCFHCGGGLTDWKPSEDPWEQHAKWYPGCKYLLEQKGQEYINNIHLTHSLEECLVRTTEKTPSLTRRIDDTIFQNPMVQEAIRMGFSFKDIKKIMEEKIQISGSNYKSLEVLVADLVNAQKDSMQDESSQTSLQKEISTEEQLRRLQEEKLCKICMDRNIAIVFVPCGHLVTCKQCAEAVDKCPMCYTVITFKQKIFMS
# procedure_details: Caspase de-repression assay using cellular extracts (apoptosome), XIAP Bir3-RING
# protocol_conditions: 293 cell S100 extract
pIC50: −log10 of the molar value.
assay_metric: pIC50

> print(dat)
                         structure.notation  assay.metric  readout.value
1  CC[C@H](N)C(=O)N[C@H](C(=O)N1CCC[C@H]1CN(C(C)=O)[C@@H]1CCCc2ccccc21)C(C)C         pIC50         > 6.00
2  CN[C@@H](C)C(=O)N[C@H](C(=O)N1CCC[C@H]1CN(CCc1ccccc1)C(=O)OCc1ccccc1)C(C)(C)C         pIC50         < 5.00
3  CC[C@H](N)C(=O)N[C@H](C(=O)N1CCC[C@H]1CN(C(=O)C(F)(F)F)[C@H](C)c1ccccc1)C(C)C         pIC50         > 5.00
4  CC(C)[C@H](NC(=O)[C@H](C)N)C(=O)N1CCC[C@H]1CN(CCc1ccccc1)C(=O)c1ccccc1         pIC50         > 6.00

###

# assayed_target: GST-HIAP1(cIAP-2) BIR 3 (Homo sapiens, UniProt Q13489)
# Sequence (Q13489 236-349): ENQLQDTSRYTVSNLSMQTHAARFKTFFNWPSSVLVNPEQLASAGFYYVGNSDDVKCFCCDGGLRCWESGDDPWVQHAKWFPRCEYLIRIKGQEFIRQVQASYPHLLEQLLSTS
# procedure_details: Fluorescence polarization-based competition assay, cIAP-2 Bir3
pIC50: −log10 of the molar value.
In this section, each of the compounds is paired with its reported pIC50.
assay_metric: pIC50

> print(dat)
                         structure.notation  readout.value
1  CC(C)[C@H](NC(=O)[C@H](C)N)C(=O)N1CCC[C@H]1CN(C(=O)C(F)(F)F)[C@@H]1CCCc2ccccc21         > 5.00
2  CN[C@@H](C)C(=O)N[C@H](C(=O)N1CCC[C@H]1CN(CCc1ccccc1)C(=O)CNC(C)=O)C(C)(C)C         > 6.00
3  CN[C@@H](C)C(=O)N[C@H](C(=O)N1CCC[C@H]1CN(CCc1ccccc1)C(=O)[C@@H](Cc1ccccc1)NC)C(C)(C)C         > 6.00
4  CC[C@H](N)C(=O)N[C@H](C(=O)N1CCC[C@H]1CN(Cc1ccccc1)C(=O)C(F)(F)F)C(C)C         < 5.00

###

In this section, each of the molecules is paired with its reported IC50.
# assayed_target: GST-HIAP1(cIAP-2) BIR 3 (Homo sapiens)
# procedure_details: Fluorescence polarization-based competition assay, cIAP-2 Bir3
assay_metric: IC50

> print(dat)
                          structure.notation                          assayed.target  assay.metric  readout.value
 1  CC(C)[C@H](NC(=O)[C@H](C)N)C(=O)N1CCC[C@H]1CN(CCCCOC(=O)c1ccccc1)CCc1ccccc1  GST-HIAP1(cIAP-2) BIR 3 (Homo sapiens)          IC50      < 1000 nM
 2  CN[C@@H](C)C(=O)N[C@H](C(=O)N1CCC[C@H]1CN(CCc1ccccc1)C(=O)[C@H](N)CCc1ccccc1)C(C)(C)C  GST-HIAP1(cIAP-2) BIR 3 (Homo sapiens)          IC50      < 1000 nM
 3  CN[C@@H](C)C(=O)N[C@H](C(=O)N1CCC[C@H]1CN(CCc1ccccc1)C(=O)CCc1ccccc1)C(C)(C)C  GST-HIAP1(cIAP-2) BIR 3 (Homo sapiens)          IC50      < 1000 nM
 4  CC[C@H](N)C(=O)N[C@H](C(=O)N1CCC[C@H]1CN([C@H](C)c1ccccc1)S(C)(=O)=O)C(C)C  GST-HIAP1(cIAP-2) BIR 3 (Homo sapiens)          IC50     > 10000 nM
 5  CC(C)[C@H](NC(=O)[C@H](C)N)C(=O)N1CCC[C@H]1CN(CCc1ccccc1)C(=O)C(F)(F)F  GST-HIAP1(cIAP-2) BIR 3 (Homo sapiens)          IC50      < 1000 nM
 6  CN[C@@H](C)C(=O)N[C@@H](CCCN)C(=O)N1CCC[C@H]1CN(CCc1ccccc1)C(=O)CCc1ccccc1  GST-HIAP1(cIAP-2) BIR 3 (Homo sapiens)          IC50      < 1000 nM
 7  CN[C@@H](C)C(=O)N[C@H](C(=O)N1CCC[C@H]1CN(CCc1ccccc1)C(=O)[C@H](N)Cc1ccc(OC)cc1)C(C)(C)C  GST-HIAP1(cIAP-2) BIR 3 (Homo sapiens)          IC50      < 1000 nM
 8  CC(C)[C@H](NC(=O)[C@H](C)N)C(=O)N1CCC[C@H]1CN(C(=O)C(F)(F)F)[C@H]1CCCc2ccccc21  GST-HIAP1(cIAP-2) BIR 3 (Homo sapiens)          IC50     < 10000 nM
 9  CN[C@@H](C)C(=O)N[C@H](C(=O)N1CCC[C@H]1CN(CCc1ccccc1)S(=O)(=O)Cc1ccccc1)C(C)(C)C  GST-HIAP1(cIAP-2) BIR 3 (Homo sapiens)          IC50      < 1000 nM
10  CN[C@@H](C)C(=O)N[C@H](C(=O)N1CCC[C@H]1CN(CCc1ccccc1)C(=O)CN)C(C)(C)C  GST-HIAP1(cIAP-2) BIR 3 (Homo sapiens)          IC50      < 1000 nM
11  C[C@H](N)C(=O)N[C@H](C(=O)N1CCC[C@H]1COCc1ccccc1)C(C)(C)C  GST-HIAP1(cIAP-2) BIR 3 (Homo sapiens)          IC50     < 10000 nM
12  CN[C@@H](C)C(=O)N[C@H](C(=O)N1CCC[C@H]1CN(CCc1ccccc1)S(=O)(=O)c1ccccc1)C(C)(C)C  GST-HIAP1(cIAP-2) BIR 3 (Homo sapiens)          IC50      < 1000 nM
13  CC(C)[C@H](NC(=O)[C@H](C)N)C(=O)N1CCC[C@H]1CN(CCc1ccccc1)C(=O)CN  GST-HIAP1(cIAP-2) BIR 3 (Homo sapiens)          IC50      < 1000 nM
14  CC(=O)N(CCc1ccccc1)C[C@@H]1CCCN1C(=O)[C@@H](NC(=O)[C@H](C)N)C(C)C  GST-HIAP1(cIAP-2) BIR 3 (Homo sapiens)          IC50      < 1000 nM
15  CC(C)[C@H](NC(=O)[C@H](C)N)C(=O)N1CCC[C@H]1COCc1ccccc1  GST-HIAP1(cIAP-2) BIR 3 (Homo sapiens)          IC50     > 10000 nM
16  CN[C@@H](C)C(=O)N[C@H](C(=O)N1CCC[C@H]1CN(CCc1ccccc1)C(=O)[C@H](N)Cc1ccncc1)C(C)(C)C  GST-HIAP1(cIAP-2) BIR 3 (Homo sapiens)          IC50      < 1000 nM
17  CN[C@@H](C)C(=O)N[C@H](C(=O)N1CCC[C@H]1CN(CCc1ccccc1)C(=O)[C@H](N)Cc1cccnc1)C(C)(C)C  GST-HIAP1(cIAP-2) BIR 3 (Homo sapiens)          IC50      < 1000 nM
18  CC(=O)N(Cc1ccccn1)C[C@@H]1CCCN1C(=O)[C@@H](NC(=O)[C@H](C)N)C(C)C  GST-HIAP1(cIAP-2) BIR 3 (Homo sapiens)          IC50     < 10000 nM
19  CN[C@@H](C)C(=O)N[C@H](C(=O)N1CCC[C@H]1CN(CCc1ccccc1)C(=O)[C@H](C)N)C(C)(C)C  GST-HIAP1(cIAP-2) BIR 3 (Homo sapiens)          IC50      < 1000 nM
20  CN[C@@H](C)C(=O)N[C@H](C(=O)N1CCC[C@H]1CN(CCc1ccccc1)C(=O)C(F)(F)F)C(C)(C)C  GST-HIAP1(cIAP-2) BIR 3 (Homo sapiens)          IC50      < 1000 nM
21  CC[C@@H](N)C(=O)N(CCc1ccccc1)C[C@@H]1CCCN1C(=O)[C@@H](NC(=O)[C@H](C)NC)C(C)(C)C  GST-HIAP1(cIAP-2) BIR 3 (Homo sapiens)          IC50      < 1000 nM
22  CN[C@@H](C)C(=O)N[C@H](C(=O)N1CCC[C@H]1CN(CCc1ccccc1)C(=O)CN(C)C)C(C)(C)C  GST-HIAP1(cIAP-2) BIR 3 (Homo sapiens)          IC50      < 1000 nM
23  CC(=O)N(CCCc1ccccc1)C[C@@H]1CCCN1C(=O)[C@@H](NC(=O)[C@H](C)N)C(C)C  GST-HIAP1(cIAP-2) BIR 3 (Homo sapiens)          IC50     < 10000 nM
